# credit: PubChem BioAssay (NCI)

assay: NCI Yeast Anticancer Drug Screen. Data for the mec2-1 strain (AID 157); conditions: S. cerevisiae mec2-1 strain, at 5.0 µM (retest, dose inferred, filed as 0.5), hits give high values
This is part of a sample that, as a whole, favours compounds with a hit. Of some 79,000 tested, about 15% had one in any assay.
Where growth inhibition equals or exceeds 2%, the correct label is TRUE; where it does not, the label is FALSE.

{"compound": "CC([CH2][Hg][Cl])c1ccccc1 (centres undefined)", "label.value": "TRUE"}
{"compound": "C[C@@H](O)[C@H]1/C=C/C=C\\C(=O)O[C@@H]2C[C@H]3O[C@@H]4[C@@H]5OC5(C)CCC4(COC(=O)[C@H]4O[C@]4(C)[C@@H](O)CO1)[C@]2(C)[C@]31CO1 (some centres undefined)", "label.value": "TRUE"}
{"compound": "CC1CCN(CCC(=O)CC(c2ccccc2)c2c(O)c3ccccc3oc2=O)CC1 (centres undefined)", "label.value": "TRUE"}

# bool: growth inhibition of [O]=[Sb]([OH])([OH])[c]1ccc(NC2OC(CO)C(O)C(O)C2O)cc1 (centres undefined) >= 2% FALSE

# bool: growth inhibition of `Nc1ccccc1C(=O)c1ccccc1` >= 2% FALSE

# bool: growth inhibition of `CN1C(=O)C2(C)SSC1(C)C(=O)N2C` >= 2% TRUE

# bool: growth inhibition of `CC(=O)[O][Sn]([c]1ccccc1)([c]1ccccc1)[c]1ccccc1` >= 2% TRUE
